- assay-system: DYRK1A kinase (Homo sapiens (Human), UniProt Q13627)
- measurement-description: DYRK1A kinase assay (Ser/Thr 18 peptide Z-lyte FRET)
- Assay type: biochemical
pEC50: −log10 of the molar value.
measured-parameter: pEC50

>  <compound>
Cn1cc(-c2ccc3cnc(NC(=O)C4CCN(CC(C)(C)O)CC4)cc3c2)nn1 [Compound 1070]

>  <result-number>
8.12

$$$$

###

- assay-system: DYRK1A kinase (Homo sapiens (Human))
- measurement-description: DYRK1A kinase assay (Ser/Thr 18 peptide Z-lyte FRET)
- Assay type: biochemical
- test-conditions: DYRK1A kinase Z-lyte assay, 30 μM ATP, one hour at room temperature; text calls values IC50
pEC50: −log10 of the molar value.

>  <structure-smiles>
CN1CCN(C[C@H]2CC[C@H](C(=O)Nc3cc4cc(-c5cnco5)ccc4cn3)CC2)CC1

>  <pEC50>
8.62

$$$$

###

- assay-system: GSK3β kinase (Homo sapiens (Human), UniProt P49841)
- Sequence (P49841 whole entry): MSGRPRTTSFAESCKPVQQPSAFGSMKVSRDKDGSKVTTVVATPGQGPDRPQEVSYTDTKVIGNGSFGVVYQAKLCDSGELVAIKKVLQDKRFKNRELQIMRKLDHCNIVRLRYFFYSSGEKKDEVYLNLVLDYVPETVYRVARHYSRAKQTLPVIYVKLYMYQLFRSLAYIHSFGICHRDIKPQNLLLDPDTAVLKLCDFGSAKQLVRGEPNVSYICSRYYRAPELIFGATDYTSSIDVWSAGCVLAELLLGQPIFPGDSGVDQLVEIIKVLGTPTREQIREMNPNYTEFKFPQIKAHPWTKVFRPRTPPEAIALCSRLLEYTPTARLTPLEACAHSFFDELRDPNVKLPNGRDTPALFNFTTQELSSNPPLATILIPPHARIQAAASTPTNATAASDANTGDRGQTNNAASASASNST
- measurement-description: GSK3β kinase assay (Ser/Thr 09 peptide Z-lyte FRET)
- Format: biochemical
measured-parameter: EC50 (µM)

>  <structure-smiles>
Cn1cc(-c2ccc3cnc(NC(=O)C4CCN(CC(C)(C)O)CC4)cc3c2)nn1

>  <assay-system>
GSK3β kinase (Homo sapiens (Human), UniProt P49841)

>  <measured-parameter>
EC50

>  <result-number>
0.016

$$$$

###

- assay-system: GSK3β kinase (Homo sapiens (Human))
- measurement-description: GSK3β kinase assay (Ser/Thr 09 peptide Z-lyte FRET)
- Type: biochemical
- test-conditions: GSK3β kinase Z-lyte assay, 46 μM ATP, one hour at room temperature; text calls values IC50

>  <structure-smiles>
CN1CCN(C[C@H]2CC[C@H](C(=O)Nc3cc4cc(-c5cnco5)ccc4cn3)CC2)CC1

>  <unit-label>
nM

>  <EC50>
83

$$$$
